Ref: ChEMBL document CHEMBL4257542

Target: D(2) dopamine receptor (Homo sapiens, UniProt P14416)
Sequence (P14416 whole entry): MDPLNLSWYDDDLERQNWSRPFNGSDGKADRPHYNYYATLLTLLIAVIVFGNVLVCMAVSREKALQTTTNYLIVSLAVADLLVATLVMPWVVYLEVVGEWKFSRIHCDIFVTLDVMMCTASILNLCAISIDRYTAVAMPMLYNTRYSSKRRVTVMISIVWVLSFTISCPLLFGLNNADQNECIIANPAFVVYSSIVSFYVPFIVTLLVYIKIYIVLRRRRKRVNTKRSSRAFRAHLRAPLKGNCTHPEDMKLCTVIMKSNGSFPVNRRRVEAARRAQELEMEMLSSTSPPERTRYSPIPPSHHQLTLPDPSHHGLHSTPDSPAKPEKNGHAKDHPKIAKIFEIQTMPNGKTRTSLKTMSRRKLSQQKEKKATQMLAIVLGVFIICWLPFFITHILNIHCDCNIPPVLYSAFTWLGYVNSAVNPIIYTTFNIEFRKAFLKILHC
Assay: Displacement of [3H]-sulpiride from human D2 receptor expressed in HEK293 cells after 150 mins by liquid scintillation counting method
Assay type: cell-based
endpoint: Ki (µM)
Give just the numeric value; µM need not be written.

Please give the measured Ki for this compound: O=C1c2ccccc2C(=O)N1CCCCN1CCN(c2cccc(F)c2F)CC1
2.16

###

Target: D(2) dopamine receptor (Homo sapiens)
Assay: Displacement of [3H]-sulpiride from human D2 receptor expressed in HEK293 cells at 100 nM after 150 mins by liquid scintillation counting method relative to control
Type: cell-based
endpoint: inhibition (%)

O=C1c2ccccc2C(=O)N1CCCCN1CCN(c2ccccc2F)CC1 : 31.8
O=C1c2ccccc2C(=O)N1CCCCN1CCN(c2cccc(Cl)c2Cl)CC1 : 70.3
O=C1c2ccccc2C(=O)N1CCCCN1CCN(c2ccccc2Cl)CC1 : 28.7
O=C(NCCCCN1CCN(c2ccc(Cl)cc2Cl)CC1)c1cc2ccccc2[nH]1 : 22.7
O=C1c2ccccc2C(=O)N1CCCCN1CCN(c2cc(C(F)(F)F)ccc2F)CC1 : -4.7

I = COc1ccccc1C1CCN(CCCCN2C(=O)c3ccccc3C2=O)CC1
II = O=C1c2ccccc2C(=O)N1CCCCN1CCN(c2ccc(F)cc2)CC1
Lower value for measured inhibition? Options: I , II Reply with the label of the item you choose.
II
(II: -6.3%, I: 92.2%)

P = CCN1CCCC1CNC(=O)c1cc(S(N)(=O)=O)ccc1OC (stereo not given)
Q = O=C1c2ccccc2C(=O)N1CCCCN1CCC(n2c(=O)[nH]c3cc(Cl)ccc32)CC1
Lab note: check whether P or Q shows the higher recorded inhibition. Reply with the label of the item you choose.
P
(P: 92.2%, Q: 56.1%)

1 = O=C1c2ccccc2C(=O)N1CCCCN1CCN(c2cccc(Cl)c2)CC1
2 = O=C1c2ccccc2C(=O)N1CCCCN1CCN(c2ccc(F)cc2F)CC1
Lab note: check whether 1 or 2 shows the higher recorded inhibition. Reply with the label of the item you choose.
1

1 = O=C1c2ccccc2C(=O)N1CCCCN1CCN(c2cccc(F)c2F)CC1
2 = O=C1c2ccccc2C(=O)N1CCCCN1CCN(c2c(F)cccc2F)CC1
Lower value for measured inhibition? Options: 1 , 2 Reply with the label of the item you choose.
2
(2: 10.3%, 1: 17.7%)

I = O=C1c2ccccc2C(=O)N1CCCCN1CCN(c2ccc(Cl)cc2Cl)CC1
II = O=C1c2ccccc2C(=O)N1CCCCN1CCN(c2ccc(Cl)cc2F)CC1
Lab note: check whether I or II shows the higher recorded inhibition. Reply with the label of the item you choose.
I
(I: 30.2%, II: 2.8%)
